Origin of measurements: paper PMC10013581

format: in vivo, human; settings: male, human, plasma, po, 300 mg, AUC0-inf, mean (SD), single oral 300 mg, low-fat meal, n=18
Test Readout: AUC(0-inf) (ng·h/mL)
Return type: number; implicit unit ng·h/mL.

I am curious: what AUC(0-inf) value has been reported for `Cn1cc(-c2cnc3cnn(S(=O)(=O)c4cnc5ccc(-c6cnn(C)c6)cn45)c3c2)cn1` ? 60500

###

format: in vivo, human; conditions: male, human, plasma, po, 300 mg, Mean t1/2 under different meal conditions, single oral 300 mg; low-fat meal, high-fat meal and fasted groups
Test Readout: half-life

Look at this compound and give its reported half-life. `Cn1cc(-c2cnc3cnn(S(=O)(=O)c4cnc5ccc(-c6cnn(C)c6)cn45)c3c2)cn1` 1480 to 1570 min

###

format: in vivo, human; settings: male, human, plasma, po, 300 mg, Cmax, mean (SD), single oral 300 mg, fasting, n=18
Test Readout: Cmax (ng/mL)
Express it in ng/mL; write the number only.

# input compound: `Cn1cc(-c2cnc3cnn(S(=O)(=O)c4cnc5ccc(-c6cnn(C)c6)cn45)c3c2)cn1` ; wanted: its Cmax 869

###

type: in vivo, human; settings: male, human, plasma, po, 300 mg, t1/2, mean (SD), single oral 300 mg, high-fat meal, n=17
Test Readout: half-life (h)
Give the value in h but do not write h after it.

Bench note: what half-life did Cn1cc(-c2cnc3cnn(S(=O)(=O)c4cnc5ccc(-c6cnn(C)c6)cn45)c3c2)cn1 [SCC244] show? 24.7

###

type: in vivo, human; conditions: male, human, plasma, po, 300 mg, Cmax (geometric mean), single oral 300 mg, fasting, n=17, bioavailability analysis set
Test Readout: Cmax (ng/mL)
Number in ng/mL, nothing else.

// lookup Cmax for `Cn1cc(-c2cnc3cnn(S(=O)(=O)c4cnc5ccc(-c6cnn(C)c6)cn45)c3c2)cn1` 824

###

assay type: in vivo, human; settings: male, human, plasma, po, 300 mg, AUC0-inf (geometric mean), single oral 300 mg, low-fat meal, n=17, bioavailability analysis set
Test Readout: AUC(0-inf) (ng·h/mL)
The response must be a number in ng·h/mL with no trailing unit.

Dear colleague, I am looking for the recorded AUC(0-inf) of the following compound: `Cn1cc(-c2cnc3cnn(S(=O)(=O)c4cnc5ccc(-c6cnn(C)c6)cn45)c3c2)cn1` 55300

###

assay type: in vivo, human; conditions: male, human, plasma, po, 300 mg, t1/2, mean (SD), single oral 300 mg, low-fat meal, n=18
Test Readout: half-life (h)
Please respond with the number in h and leave the unit unwritten.

So what does the record say about half-life for `Cn1cc(-c2cnc3cnn(S(=O)(=O)c4cnc5ccc(-c6cnn(C)c6)cn45)c3c2)cn1` ? 25.6

###

type: in vivo, human; conditions: male, human, plasma, po, 300 mg, AUC0-inf (geometric mean), single oral 300 mg, high-fat meal, n=17, bioavailability analysis set
Test Readout: AUC(0-inf) (ng·h/mL)
Give your result in ng·h/mL as a bare value.

Any idea what its AUC(0-inf) is? The compound is `Cn1cc(-c2cnc3cnn(S(=O)(=O)c4cnc5ccc(-c6cnn(C)c6)cn45)c3c2)cn1` 59700

###

format: in vivo, human; conditions: male, human, plasma, po, 300 mg, AUC0-t, mean (SD), single oral 300 mg, high-fat meal, n=17
Test Readout: AUC(0-t)
For clarity, give the value followed by its unit.

Item under review: Cn1cc(-c2cnc3cnn(S(=O)(=O)c4cnc5ccc(-c6cnn(C)c6)cn45)c3c2)cn1 [SCC244] . Reported AUC(0-t)? 64100 ng·h/mL
